Species: Rattus norvegicus
methodDescription: Displacement of [3H]quinuclidinyl benzilate from Wistar rat cortex muscarinic AChR at 3 uM by liquid scintillation counting analysis relative to control
Assay type: tissue-based
measurementType: Activity

Param item = `C[C@]12CC[C@@H]3c4ccc(OCc5cccnc5)cc4CC[C@H]3[C@@H]1CC[C@@H]2N1CCCC1` ; retrieve measured Activity.
57%

Param item = `C[C@]12CC[C@H]3[C@@H](CC=C4C[C@@H](OCCCN5CCCC5)CC[C@@]43C)[C@@H]1CC[C@@H]2N1CCCC1` ; retrieve measured Activity.
92%

Param item = `C[C@]12CC[C@@H]3c4ccc(OCc5ccccn5)cc4CC[C@H]3[C@@H]1CC[C@@H]2N1CCCC1` ; retrieve measured Activity.
51%

Param item = `C[C@]12CC[C@@H]3c4ccc(OCc5ccc(Cl)cn5)cc4CC[C@H]3[C@@H]1CC[C@@H]2N1CCCC1` ; retrieve measured Activity.
66%
